Attribute: inhibition at 10 µM
# targetOrTestSystem: CYP3A4 (Homo sapiens, UniProt P08684)
# Sequence (P08684 whole entry): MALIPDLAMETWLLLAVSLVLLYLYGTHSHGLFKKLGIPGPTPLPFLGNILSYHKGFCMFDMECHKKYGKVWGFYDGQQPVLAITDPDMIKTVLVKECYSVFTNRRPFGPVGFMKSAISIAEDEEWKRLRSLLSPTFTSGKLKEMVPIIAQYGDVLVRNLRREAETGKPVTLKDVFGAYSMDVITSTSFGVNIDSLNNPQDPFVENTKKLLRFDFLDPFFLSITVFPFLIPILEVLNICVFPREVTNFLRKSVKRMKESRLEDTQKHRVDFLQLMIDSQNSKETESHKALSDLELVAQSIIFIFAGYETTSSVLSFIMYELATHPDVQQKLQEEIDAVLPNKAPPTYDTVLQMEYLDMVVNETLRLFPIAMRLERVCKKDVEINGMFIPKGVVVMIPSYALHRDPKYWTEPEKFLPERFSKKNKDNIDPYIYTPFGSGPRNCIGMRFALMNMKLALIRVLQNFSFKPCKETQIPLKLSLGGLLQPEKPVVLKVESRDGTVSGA
# assayComment: Inhibition of CYP3A4 (unknown origin) at 10 uM
# Assay type: ADME

compound	inhibition at 10 µM, %
O=C(NCc1cccc(-c2ccc(CS(=O)(=O)Cc3n[nH]c(=O)[nH]3)cc2)c1)c1nc2ccccc2c(=O)[nH]1	29
CCOCCC1(Oc2ccc(-c3cccc(CNC(=O)c4nc5ccccc5c(=O)[nH]4)c3)cc2)C(=O)NC(=O)NC1=O	22
CC(=O)N(O)C(CS(=O)(=O)c1ccc(-c2cccc(CNC(=O)c3nc4ccccc4c(=O)[nH]3)c2)cc1)C(C)C (stereo not drawn)	99
